Test: non-covalent RecA intein splicing inhibitors, dose response, biochemical, cell-free, fluorescence, secondary screen (AID 449750)
Calls of active or inactive are those of the source. The rule behind the calls is not given here.
Give one outcome, nothing more. List: 1.0 = active, 0.0 = inactive

// query How did this test come out for COc1ccc(C(N)c2nccc3cc(OC)c(OC)cc23)cc1OC (stereo unspecified) ?
// result 0.0

// query How did this test come out for CCCCOP(=O)(OCCCC)C1(NS(=O)(=O)c2ccccc2)C=CC(=O)c2ccccc21 (stereo unspecified) ?
// result 1.0

// query How did this test come out for CC1(C)CC(C(CCN(Cc2ccccc2)C(=O)c2ccco2)c2ccc(F)cc2)CCO1 (stereo unspecified) ?
// result 1.0

// query How did this test come out for `CC(=O)N1CC2(c3ccccc3)CN(C(C)=O)CC(c3ccccc3)(C1)C2=O` ?
// result 0.0

// query How did this test come out for `COC(=O)c1c(NC(=O)/C=C/C(=O)O)sc(C)c1-c1ccc(C(C)C)cc1` ?
// result 1.0

// query How did this test come out for `COc1ccc(/C=C2/C(=O)N(c3ccccc3)N=C2C)cc1Br` ?
// result 1.0

// query How did this test come out for `Cc1ccccc1NC1=C/C(=N\S(=O)(=O)c2ccc(C(=O)O)cc2)c2ccccc2C1=O` ?
// result 1.0

// query How did this test come out for COc1ccc(NC(=S)NC(NC(=O)CCl)C(Cl)(Cl)Cl)c([N+](=O)[O-])c1 (stereo unspecified) ?
// result 1.0

// query How did this test come out for `O=C(Nc1ccccc1)c1nnsc1S(=O)(=O)c1ccc(Cl)cc1` ?
// result 0.0

// query How did this test come out for O=C(CNC(=O)C1COc2ccccc2O1)N/N=C\c1ccccc1Cl (stereo unspecified) ?
// result 0.0

// query How did this test come out for `O=C(Cc1ccccc1F)Nc1nc2ccccc2[nH]1` ?
// result 0.0

// query How did this test come out for `Cc1[nH]n(-c2ccccc2)c(=O)c1C(c1cccc([N+](=O)[O-])c1O)c1c(C)[nH]n(-c2ccccc2)c1=O` ?
// result 1.0

// query How did this test come out for COCC(C)NC(=O)CCS(=O)(=O)c1nc(-c2ccc(OC)cc2)cc(C(F)(F)F)n1 (stereo unspecified) ?
// result 0.0

// query How did this test come out for COc1ccccc1-c1cc(C(F)(F)F)nc(S(=O)(=O)CCCC(=O)N2CCCCC2C)n1 (stereo unspecified) ?
// result 0.0

// query How did this test come out for `O=C(c1ccco1)c1coc2c1cc(O)c1ccccc12` ?
// result 1.0

// query How did this test come out for `CCCCC(O)(CCCC)C(=O)NN(C(=O)CCl)c1ccccc1` ?
// result 1.0

// query How did this test come out for `O=C1CC(c2cccnc2)=NN1c1ccccc1` ?
// result 0.0

// query How did this test come out for `COC(=O)c1ccc(-n2c(C)cc(C(=O)CCl)c2C)cc1` ?
// result 1.0

// query How did this test come out for O=S(=O)(N[C@H]1C[C@@H](NS(=O)(=O)OCC(Cl)(Cl)Cl)C2CCCCC21)OCC(Cl)(Cl)Cl (stereo partly specified) ?
// result 1.0

// query How did this test come out for `O=C(Oc1cccc(OC(=O)c2ccco2)c1)c1ccco1` ?
// result 1.0

// query How did this test come out for `O=C1c2cc([N+](=O)[O-])ccc2-c2ncccc21` ?
// result 0.0
